assay_comment: protein stability index of a GFP-peptide fusion (GPS, HEK-293T) (PSI 1-6); higher = more stable;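 also: 24-mer peptide tiles fused after GFP, lentivirally expressed, FACS-sorted into six equal bins by GFP/DsRed ratio, decoded by Illumina sequencing, PSI is the read-weighted mean bin number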
run_conditions: treatment: DMSO; c terminus: a fixed tail appended
metric: protein stability index
Lab note: record just the number, no unit beside it.

>  <seq_text>
AARPDVKCVVHIHTPAGAAVSAMK [ADD1]

>  <protein stability index>
2.95

$$$$
>  <seq_text>
KCPWMEGGEMSPQVETSIEGTIPF [INTS4]

>  <protein stability index>
4.08

$$$$
>  <seq_text>
MHLNFMDEKDRIITAFYNEARARA [DNAJC4]

>  <protein stability index>
2.92

$$$$
>  <seq_text>
DCVDGLFKEVKEKFKGWVSYSTSE [DLC1]

>  <protein stability index>
3.04

$$$$

From here, focus on the item given below.
Please report the recorded protein stability index for TGFRTISSLEEIVEKQGDTIEYLK [TMEM192] .
3.98

###

assay_comment: protein stability index of a GFP-peptide fusion (GPS, HEK-293T) (PSI 1-6); higher = more stable
run_conditions: treatment: DMSO; c terminus: a fixed tail appended
Is protein stability index at least 3? Then T. If not, F.

>  <seq_text>
KMVPRYDLNRHLDEMCANNDFVQV [FAN1]

>  <class>
F

$$$$

Reported protein stability index at or above 3? LSLIARFSPIAIDGMSGLAGVGLS [ELAVL3]
F

Reported protein stability index at or above 3? RGDIFERIVHLQETCDLGKIKPEA [NLN]
T

Reported protein stability index at or above 3? IQVLPKLSSSIIHEIDSILGNKPY [KCNAB2]
F

Reported protein stability index at or above 3? MLNEPLVREIVKECSNIPLSQPQQ [GAN]
T

Reported protein stability index at or above 3? RKHSDLEEEEERWEWSPAGLQSYQ [SERTAD3]
T

Reported protein stability index at or above 3? GCEHSCVSSEDSFVCQCFEGYILR [MATN2]
T

Reported protein stability index at or above 3? KTHTGEKPHRCHNCGKSFSRLTAL [ZNF449]
F

Reported protein stability index at or above 3? LYSSSLGGGVATSPMLIVFHGKYS [GLT8D2]
F

Reported protein stability index at or above 3? KGEFKDEEETVTTKHIHITQATET [CLINT1]
T

Reported protein stability index at or above 3? SINTHLGKEQSRRDDLEALGHMFM [CSNK1G3]
F

###

assay_comment: protein stability index of a GFP-peptide fusion (GPS, HEK-293T) (PSI 1-6); higher = more stable
run_conditions: treatment: MLN4924 1 uM, 8 h; c terminus: a fixed tail appended
Is protein stability index at least 3? Then true (1). If not, false (0).

Field: example entries. Status: answers known.
>  <seq_text>
LMRHMATHSPQKSHQCAHCEKTFN [PLAGL1]

>  <class>
true (1)

$$$$
>  <seq_text>
LQMEMKEDDVSFLMKHKSRKRRLF [TRIM35]

>  <class>
true (1)

$$$$
>  <seq_text>
PVVSAVWGHCEVTMRYINGLDPEP [SPSB4]

>  <class>
false (0)

$$$$
>  <seq_text>
ETTERMKCLYYLYATLDLNAVKYV [PDS5B]

>  <class>
true (1)

$$$$
>  <seq_text>
AVGGRLRLVPGGQRPADVPEPGRA [HAGHL]

>  <class>
true (1)

$$$$
>  <seq_text>
RRKCGQYWPLEKDSRIRFGFLTVT [PTPN9]

>  <class>
false (0)

$$$$
>  <seq_text>
TFHHPTYGSCYTVDGVWTAQRPGI [SCNN1D]

>  <class>
false (0)

$$$$
>  <seq_text>
QSLPKASPVTTSPTAATTQNPVLS [LCOR]

>  <class>
true (1)

$$$$

Reported protein stability index at or above 3? VNMVDVAKALNRPPTYPTKYFGCE [EIF5]
false (0)
